Documented protein stability index across a set of sequences
Test system: Saccharomyces cerevisiae;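 also: PSI is a weighted mean of sequencing reads over stability bins, variants kept only with over 10 reads, mCherry proximal and sfGFP distal, peptide attached via GGGS linker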
Assay: protein stability index of tFT-peptide fusion (C-terminal peptide) (PSI (0-1 scale)); higher = more stable (slower turnover)
Details: genetic background: wild type; temperature: 30 C
Number, no unit, nothing else.

>>> value_measured("SGFKRWSDVGDY")
0.681
>>> value_measured("SARWTSRIQDRS")
0.652
>>> value_measured("SLFPQIFFFFFA")
0.498
>>> value_measured("AAGTVFCRITWD")
0.678
>>> value_measured("WCVCTFGGCDFP")
0.641
>>> value_measured("AGIDYLSVGGSL")
0.728

Request: Please look up its protein stability index: `LVCLPVGFFLMW`
Result: 0.49
